tested on: Escherichia coli TOP10; assay: shrunken log2 fold change of peptide-encoding DNA abundance (4.5 h post-induction vs induction); higher = less antimicrobial activity (less host growth inhibition); conditions: time post-induction: 4.5 h; library: site-saturation at positions 5, 18, 19, 20;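 further: peptides expressed intracellularly from a pBAD plasmid library in pooled LB shake-flask culture, induced with 0.3% L-arabinose, DNA abundance read by NGS, three biological replicates, DESeq2 with apeglm shrinkage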
propertyName: shrunken log2 fold change
Give only the figure.

# annotated cases, reported shrunken log2 fold change shown
In [3]: df
Out[3]:
        biopolymersequence  valueobserved
0  RRIRPRPPRLPRPRPRPQQHPRP        -0.0726
1  RRIRTRPPRLPRPRPRPPNTPRP          0.443
2  RRIRRRPPRLPRPRPRPCNWPRP        -0.0134
3  RRIRFRPPRLPRPRPRPQRMPRP          -0.29
4  RRIRSRPPRLPRPRPRPKRLPRP          0.297
5  RRIRRRPPRLPRPRPRPLTTPRP          0.311

[ask] Given the entry `RRIRPRPPRLPRPRPRPQVWPRP` , report its measured shrunken log2 fold change.
[reply] 0.202

[ask] Given the entry `RRIRARPPRLPRPRPRPMFCPRP` , report its measured shrunken log2 fold change.
[reply] 0.211
